- Test system: LOX IMVI melanoma
- ASSAY_PROCEDURE: NCI-60 one-dose screen, 48 h (100 = growth as untreated, 0 = no growth, -100 = all killed)
- RECORDED_CONDITIONS: 10 µM unless noted
This is part of a sample that, as a whole, favours compounds with a hit. Of some 83,000 tested, about 20% had one in any assay.
Threshold rule: growth greater than or equal to 10% is label 1; below that, label 0.

Previously resolved entries follow.
INSERT INTO measurements (compound, assigned_label) VALUES
  ('COc1cnc2c(c1)C(=O)c1c-2n(CCCNC(C)C)c(=O)c2cc([N+](=O)[O-])ccc12', 'label 0'),
  ('Nc1c(C(=O)Nc2c(Cl)cccc2Cl)sc2nc3c(cc12)C(=O)CCC3', 'label 1'),
  ('NC(Cc1ccc(O)cc1)C(=O)N/N=C/c1ccccc1O (stereo not drawn)', 'label 1'),
  ('N#CCCCCCn1c2ccccc2c2c3[nH]c(=O)[nH]c(=O)c3c3c4ccccc4n(CCCCCC#N)c3c21', 'label 1');

Is growth for "COC(=O)[C@]12CC[C@@H](C)[C@H](C)[C@@H]1C1=CC(=O)[C@@H]3[C@@]4(C)C[C@@H](OC(C)=O)[C@H](OC(C)=O)[C@@](C)(COC(C)=O)[C@@H]4C(=O)C[C@@]3(C)[C@]1(C)CC2" at or above 10%? label 1

Is growth for "c1ccc(-c2nc(Nc3ccc(-c4nc5ccccc5[nH]4)cc3)nc(N3CCOCC3)n2)cc1" at or above 10%? label 0

Is growth for COc1ccc(C2C(C#N)=C(N)Oc3c2sc2c(F)cccc32)cc1 (stereo not drawn) at or above 10%? label 1

Is growth for "COc1ccc(C2(Cl)c3ccccc3N(c3ccccc3)c3ccccc32)cc1" at or above 10%? label 0

Is growth for "O=S(=O)(NCCNc1cc(-c2cn(-c3ccccc3)nc2-c2cccc(O)c2)ccn1)c1ccc(Cl)cc1" at or above 10%? label 1

Is growth for "COC(=O)[C@]12CC[C@@H](C)[C@H](C)[C@@H]1C1=CC[C@@H]3[C@@]4(C)C(c5ncon5)=C[C@@](C)(CO)C4=CC[C@@]3(C)[C@]1(C)CC2" at or above 10%? label 0

Is growth for "COc1ccc2c3c(c4ccccc4cc13)C(=O)N(CCN(C)CCN)C2=O" at or above 10%? label 0

Entry source: PubChem BioAssay (NCI)
